Assay: Compound solubility in water
Conditions: water, Compound Solubility in Water
Endpoint: solubility (µg/mL)

1 = Cc1cc(C)n2ccc(C(=O)NC3CCC(C4CCCO4)CC3)c2n1 (centres unmarked) [III-199]
2 = C#Cc1ccc(NC(=O)c2ccn3c(C)cc(C)nc23)c(OCCOC)c1 [III-183]
3 = Cc1cc(C)n2ccc(C(=O)NC3(C)CCOc4cccc(F)c43)c2n1 (centres unmarked) [III-118]
4 = COCCOCCO[C@H]1CC[C@H](NC(=O)c2ccn3c(C)cc(C)nc23)CC1 [III-105]
5 = Cc1cc(C)n2ccc(C(=O)N[C@H]3CC[C@H](OCC(C)(C)C)CC3)c2n1 [III-93]
query: Please order the records by their reported solubility, lowest number first. Hello, could you send the labels back in the order asked? Thank you.
result: 2, 3, 5, 1, 4
